Target: T1, Bcat-Halo (UniProt P35222 1-781)
T1 sequence (looked up): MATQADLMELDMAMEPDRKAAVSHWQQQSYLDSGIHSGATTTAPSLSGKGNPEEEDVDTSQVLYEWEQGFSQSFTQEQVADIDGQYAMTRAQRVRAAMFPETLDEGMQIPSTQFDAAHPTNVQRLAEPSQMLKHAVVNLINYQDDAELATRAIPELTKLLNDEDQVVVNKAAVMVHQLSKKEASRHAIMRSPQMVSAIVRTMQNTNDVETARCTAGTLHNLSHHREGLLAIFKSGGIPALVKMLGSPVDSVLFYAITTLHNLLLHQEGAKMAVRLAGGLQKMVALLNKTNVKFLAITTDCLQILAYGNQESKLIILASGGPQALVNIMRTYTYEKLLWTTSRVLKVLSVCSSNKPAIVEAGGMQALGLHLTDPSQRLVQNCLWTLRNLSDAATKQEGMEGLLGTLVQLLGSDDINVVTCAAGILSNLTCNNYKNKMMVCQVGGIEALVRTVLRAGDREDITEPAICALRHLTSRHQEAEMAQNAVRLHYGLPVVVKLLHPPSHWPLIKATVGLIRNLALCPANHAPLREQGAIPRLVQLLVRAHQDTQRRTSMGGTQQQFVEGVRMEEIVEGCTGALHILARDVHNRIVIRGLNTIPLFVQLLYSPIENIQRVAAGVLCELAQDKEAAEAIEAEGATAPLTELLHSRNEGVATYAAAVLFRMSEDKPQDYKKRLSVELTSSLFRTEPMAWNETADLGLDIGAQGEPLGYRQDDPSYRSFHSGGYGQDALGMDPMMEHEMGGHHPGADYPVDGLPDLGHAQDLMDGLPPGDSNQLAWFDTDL
Test: cell-based or functional assay
Starred links: 1 amine or outer side, 2 acyl side, 3 side chain; linkers in the order of their positions; H or OH if unused. Positions of bridges follow the written chain, without caps; N, C: chain ends. Non-standard residues stand in square brackets, D forms with d. Primed or numbered codes have the meaning given here. PyrS2″ = (S)-3-amino-1-((pent-4-en-1-yloxy)carbonyl)pyrrolidine-3-carboxylic acid (stapling residue), C=CCCCOC(=O)N1CC[C@@](N[*:1])(C(=O)[*:2])C1; (2COOHPh)TriAzDap = (S)-2-(1-(2-amino-2-carboxyethyl)-1H-1,2,3-triazol-4-yl)benzoic acid, O=C([C@H](Cn1cc(-c2ccccc2C(=O)[*:3])nn1)N[*:1])[*:2]; B5(4) = 2,2-bis(4-pentenyl)glycine = 2-amino-2-(pent-4-en-1-yl)hept-6-enoic acid (stitching residue), C=CCCCC(CCCC=C)(N[*:1])C(=O)[*:2]; (2COOH4NH2Ph)Dap = (S)-5-amino-2-((2-amino-2-carboxyethyl)amino)benzoic acid, Nc1ccc(NC[C@H](N[*:1])C(=O)[*:2])c(C(=O)[*:3])c1; Bta = N[C@@H](Cc1csc2ccccc12)C(=O)O; αAllylPro = C=CC[C@@]1(C(=O)O)CCCN1; tBuAla = CC(C)(C)C[C@H](N)C(=O)O; 3Thi = N[C@@H](Cc1ccsc1)C(=O)O
property-name: NanoBRET Abs IC50 (µM)
Provide the reading as a plain figure in µM.

binder: Ac-[αAllylPro]D[tBuAla][B5(4)]D[(2COOHPh)TriAzDap]AAFL[PyrS2″][3Thi][Bta]Q-NH2 (staple 1-4, 4-11) [I-2086]
property-name: NanoBRET Abs IC50
endpoint-unit: µM
recorded-number: 16.4

// field: NanoBRET Abs IC50; key: Ac-[αAllylPro]D[tBuAla][B5(4)]D[(2COOH4NH2Ph)Dap]AAFL[PyrS2″][3Thi][Bta]Q-NH2 (staple 1-4, 4-11) [I-2087] ; value = 6.5

// provenance: patent US20240116985A1
